Assignment: determine reported folding stability dG for the given variants.
B1: 1ZHC (parent)
chain: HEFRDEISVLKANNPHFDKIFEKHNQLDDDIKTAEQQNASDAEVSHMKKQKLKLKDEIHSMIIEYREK

- Variants of: B1
- assay-method-text: folding stability dG (cDNA display proteolysis); higher = more stable
- condition-context: PBS, room temperature
Hi! Could you send only the number? It should be in kcal/mol, unit omitted.

For Q50A , what is its reported folding stability dG? 0.475

For I63G , what is its reported folding stability dG? -0.621

For D5F , what is its reported folding stability dG? 1.36

For K53N , what is its reported folding stability dG? -0.015

For Y65Q , what is its reported folding stability dG? 0.149

For S45C , what is its reported folding stability dG? 1.15

For E43H , what is its reported folding stability dG? 0.621

For Q37C , what is its reported folding stability dG? 0.94

For H16V , what is its reported folding stability dG? 0.505

For A39Q , what is its reported folding stability dG? 0.259

For K55L , what is its reported folding stability dG? 1.45

For S60Y , what is its reported folding stability dG? 0.561

For I63C , what is its reported folding stability dG? 1.17

For E57F , what is its reported folding stability dG? -0.51

For S45W , what is its reported folding stability dG? 0.834

For E67G , what is its reported folding stability dG? 0.605

For Q37D , what is its reported folding stability dG? 0.411

For A42Q , what is its reported folding stability dG? 0.718

For E22H , what is its reported folding stability dG? 0.392

For E43G , what is its reported folding stability dG? -0.301

For H24R , what is its reported folding stability dG? -0.124

For K68T , what is its reported folding stability dG? 0.49
